- measurementTarget: T1, delta opioid receptor (DOR) (UniProt P41143)
- T1 chain: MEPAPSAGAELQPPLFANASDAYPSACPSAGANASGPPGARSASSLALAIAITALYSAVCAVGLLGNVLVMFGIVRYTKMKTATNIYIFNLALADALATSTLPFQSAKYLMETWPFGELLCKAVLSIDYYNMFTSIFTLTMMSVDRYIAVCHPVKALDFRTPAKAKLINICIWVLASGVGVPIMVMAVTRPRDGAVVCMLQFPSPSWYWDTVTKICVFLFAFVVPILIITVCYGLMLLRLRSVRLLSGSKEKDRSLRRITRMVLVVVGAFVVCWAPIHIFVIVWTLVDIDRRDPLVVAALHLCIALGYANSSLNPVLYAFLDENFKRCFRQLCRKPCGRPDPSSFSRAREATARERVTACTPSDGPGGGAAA
- measurementProtocol: competition
Non-standard residues stand in square brackets, D forms with d. No end group written: not given here. *: point of attachment. Dmt = Cc1cc(O)cc(C)c1C[C@H](N)C(=O)O; NMeF = CN[C@@H](Cc1ccccc1)C(=O)O; hSer = N[C@@H](CCO)C(=O)O; Orn = NCCC[C@H](N)C(=O)O; NHBn = c1ccc(CN*)cc1
Ki values for the binders below.

- binder: "Y[dA]GF[hSer]PLW-NHBn [AKG039]"
  Ki: "6 nM"
- binder: "[Dmt][dA]G[NMeF]SPLW-NHBn [AKG132]"
  Ki: "2 nM"
- binder: "Y[dA]G[NMeF]SPLW-NHBn [AKG126]"
  Ki: "63 nM"
- binder: "Y[dA]G[NMeF][Orn]PLW (not fully specified (C-terminus)) [AKG173]"
  Ki: "0.05 nM"
